OD450 at 0.01 nM by entry:
Target: T1, human MSLN-R1-his protein (human, UniProt Q13421 296-390)
T1 construct: Region 1 of human MSLN, His-tagged; also called human MSLN-R1 protein; hMSLN-R1-his; not shown: His tag
T1 chain: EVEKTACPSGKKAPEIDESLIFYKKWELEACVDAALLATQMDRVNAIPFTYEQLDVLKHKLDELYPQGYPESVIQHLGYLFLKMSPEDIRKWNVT
Experiment: ELISA, coated MSLN-R1;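 also: serially diluted chimeric antibodies bound to the coated, BSA-blocked plate for 2 h at 37 °C, with TMB colour read after acid stop and a negative control antibody alongside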
The reply should be a number in OD450, with the unit left off.

{"Binder": "S009-F2.58.8 (antibody, human IgG1, kappa, V domains shown, Human-murine chimeric antibody, human IgG1/kappa constant regions) VH: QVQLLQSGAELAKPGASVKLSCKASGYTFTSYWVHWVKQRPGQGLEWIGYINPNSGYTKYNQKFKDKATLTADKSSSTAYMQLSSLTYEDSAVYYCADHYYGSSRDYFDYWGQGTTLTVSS VL: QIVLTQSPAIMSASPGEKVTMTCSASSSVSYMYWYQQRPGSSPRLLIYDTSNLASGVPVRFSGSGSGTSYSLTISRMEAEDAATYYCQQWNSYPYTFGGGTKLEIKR", "Numeric Result": 0.05}

Turning to the following binder.
input: Looking for the measured OD450 at 0.01 nM of S009-F2.23.12 (antibody, human IgG1, kappa, V domains shown, Human-murine chimeric antibody, human IgG1/kappa constant regions) VH: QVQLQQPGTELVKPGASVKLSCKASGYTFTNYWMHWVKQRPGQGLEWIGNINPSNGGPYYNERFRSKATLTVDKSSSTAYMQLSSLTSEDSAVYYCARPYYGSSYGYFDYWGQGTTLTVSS VL: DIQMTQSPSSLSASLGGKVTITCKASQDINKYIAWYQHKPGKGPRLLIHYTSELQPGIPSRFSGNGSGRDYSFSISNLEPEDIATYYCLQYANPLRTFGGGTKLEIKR , can you help?
output: 0.06
